src = the supplement of paper PMC4840960

tested on: E18 rat cortical neuron-glia co-culture; assay: fiber score / MBP score (myelination specific beyond OL differentiation) (ratio); higher = more myelination-specific MBP alignment; details: 1 µM; treatment time: 8 days (DIV5-DIV13);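 further: MBP fiber length per Olig2+ nucleus over MBP area × intensity per Olig2+ nucleus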
parameter.measured: fiber score / MBP score

# compound, reported
measured = [
    ("Clc1ccc2c(c1)CCc1cccnc1C2=C1CCNCC1 [Desloratadine]", 0.902),
    ("Cc1ccsc1C(=CCCN1CCC[C@@H](C(=O)O)C1)c1sccc1C [Tiagabine]", 0.656),
    ("CC(COc1ccccc1)NC(C)C(O)c1ccc(O)cc1 (centres undefined) [Isoxsuprine]", 0.798),
    ("CCOC(=O)O[C@]1(C(=O)OCCl)CC[C@H]2[C@@H]3CCC4=CC(=O)C=C[C@]4(C)[C@H]3[C@@H](O)C[C@@]21C [Loteprednol etabonate]", 0.604),
    ("O=C(CCCN1CCC(O)(c2ccc(Cl)cc2)CC1)c1ccc(F)cc1 [Haloperidol]", 0.526),
    ("CCc1oc2ccccc2c1C(=O)c1cc(Br)c(O)c(Br)c1 [Benzbromarone]", 0.764),
    ("CN(C)[C@@H]1C(O)=C(C(=O)NCN2CCCC2)C(=O)[C@@]2(O)C(O)=C3C(=O)c4c(O)cccc4[C@@](C)(O)[C@H]3C[C@@H]12 [Rolitetracycline]", 0.779),
    ("CN(C)c1nc(N(C)C)nc(N(C)C)n1 [Altretamine]", 0.923),
    ("O=C(O)COCCN1CCN(C(c2ccccc2)c2ccc(Cl)cc2)CC1 (centres undefined) [Cetirizine]", 0.908),
]
